Cited source for all entries: PubChem BioAssay AID463173

# Tested on: DeltatarO mutant
# protocol: S. aureus survival, RN4220 and DeltatarO strains – OD600, teichoic acid synthesis inhibitors, primary screen (AID 463173)
# conditions: S. aureus RN4220 wild type/DeltatarO growth, OD600, 18 h, screened at 18.75 µg/mL (by protocol)
The whole screen tested about 52,000 compounds, of which about 4,300 (8.3%) were called active. No stated cut-off is given here; in the data, active means survival mostly below about 52% (no sharp cut-off); inactive means mostly above about 56%. Shown is part of a subset that was picked to be rich in actives.
Outcome field: choose from TRUE (active), FALSE (inactive)

Previously resolved entries follow.
1) CNC(=O)c1ccc2nc(Cc3ccccc3)oc2c1    TRUE
2) O=C(CSc1ccccc1)NCc1ccc2c(c1)CCN2C(=O)c1ccc(F)cc1    FALSE
3) Cc1ccccc1NC(=O)c1ccc2nc(Cc3ccccc3)oc2c1    FALSE
4) O=c1cc(CN2CCN(S(=O)(=O)c3ccc(Cl)cc3)CC2)nc2sc(-c3ccccc3F)nn12    FALSE
5) O=C(Oc1ccc(Cl)cc1)c1cc(-c2ccc3c(c2)OCCO3)on1    FALSE

Query block: Short answer needed: outcome of this test for O=C(Nc1cc(C(F)(F)F)ccc1Cl)c1cc(-c2ccc3c(c2)OCCO3)on1 ?
Result block: FALSE

Query block: Short answer needed: outcome of this test for CN(C)c1ccc(C(CNC(=O)c2ccccc2)N2CCc3ccccc32)cc1 (configuration not stated) ?
Result block: FALSE

Query block: Short answer needed: outcome of this test for CC(C)COC(=O)Nc1ccc2c(c1)OCO2 ?
Result block: FALSE

Query block: Short answer needed: outcome of this test for CCOc1ccc(C(=O)NCCc2csc(-c3cccnc3)n2)cc1 ?
Result block: FALSE

Query block: Short answer needed: outcome of this test for N#Cc1ccc(OC(=O)c2cc(-c3ccc4c(c3)OCCO4)on2)cc1 ?
Result block: FALSE

Query block: Short answer needed: outcome of this test for CNC(=O)c1ccc2nc(CCc3ccccc3)oc2c1 ?
Result block: FALSE

Query block: Short answer needed: outcome of this test for O=C(CN1C(=O)CC(c2ccco2)Sc2ccccc21)Nc1ccc(Br)cc1 (configuration not stated) ?
Result block: FALSE

Query block: Short answer needed: outcome of this test for Cc1cccc(NC(=O)C2CCCN(c3nnc(-n4c(C)ccc4C)s3)C2)c1C (configuration not stated) ?
Result block: FALSE

Query block: Short answer needed: outcome of this test for CCOC(=O)C(Cc1ccccc1)NC(=O)Cn1nnc(-c2ccc(C)cc2)n1 (configuration not stated) ?
Result block: FALSE

Query block: Short answer needed: outcome of this test for CC(C)c1ccc(OC(=O)c2cc(-c3ccc(Cl)cc3)on2)cc1 ?
Result block: FALSE

Query block: Short answer needed: outcome of this test for Cc1ccc(Cl)cc1NCc1nnc2n1CCCCC2 ?
Result block: FALSE

Query block: Short answer needed: outcome of this test for CN(C)c1ccc(C(CNC(=O)c2ccccc2F)N2CCc3ccccc32)cc1 (configuration not stated) ?
Result block: FALSE

Query block: Short answer needed: outcome of this test for O=C(NCCCN1CCN(c2ccccc2)CC1)c1ccc2nc(Cc3ccccc3)oc2c1 ?
Result block: FALSE

Query block: Short answer needed: outcome of this test for COc1cccc(C(=O)NCC(c2ccc(N(C)C)cc2)N2CCc3ccccc32)c1OC (configuration not stated) ?
Result block: FALSE

Query block: Short answer needed: outcome of this test for O=C(NCCCN1CCN(c2ccccc2F)CC1)c1ccc2nc(Cc3ccccc3)oc2c1 ?
Result block: TRUE

Query block: Short answer needed: outcome of this test for CCNC(=O)c1ccc2nc(Cc3ccccc3)oc2c1 ?
Result block: FALSE

Query block: Short answer needed: outcome of this test for Cc1ccc(NC(=O)c2ccc3nc(Cc4ccccc4)oc3c2)cc1F ?
Result block: TRUE
